target: Oatp1b2 (Mus musculus)
Sequence (Q9JJL3 whole entry): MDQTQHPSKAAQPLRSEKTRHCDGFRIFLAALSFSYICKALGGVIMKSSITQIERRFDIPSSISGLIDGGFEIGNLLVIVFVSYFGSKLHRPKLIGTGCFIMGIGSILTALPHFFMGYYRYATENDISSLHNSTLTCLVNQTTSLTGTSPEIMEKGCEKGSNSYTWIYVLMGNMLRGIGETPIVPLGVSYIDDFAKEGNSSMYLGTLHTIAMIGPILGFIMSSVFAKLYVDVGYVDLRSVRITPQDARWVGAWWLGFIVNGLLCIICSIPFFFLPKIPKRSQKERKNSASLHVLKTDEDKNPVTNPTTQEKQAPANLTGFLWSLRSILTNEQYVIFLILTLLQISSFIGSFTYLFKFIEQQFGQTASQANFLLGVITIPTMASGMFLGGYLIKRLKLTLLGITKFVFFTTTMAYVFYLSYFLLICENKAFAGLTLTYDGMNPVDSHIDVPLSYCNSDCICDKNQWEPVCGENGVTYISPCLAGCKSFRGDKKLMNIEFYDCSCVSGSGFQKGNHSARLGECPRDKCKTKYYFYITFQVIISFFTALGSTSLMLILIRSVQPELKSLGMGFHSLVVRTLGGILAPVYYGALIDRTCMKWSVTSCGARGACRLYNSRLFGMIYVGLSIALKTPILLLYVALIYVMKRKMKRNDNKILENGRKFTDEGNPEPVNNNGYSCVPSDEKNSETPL
protocol-details: Untargeted metabolomics of plasma from untreated wild-type and Oatp1b2(−/−) mice
condition-notes: plasma of untreated Oatp1b2-deficient mice; raw area counts rescaled to median = 1
metric-name: Mean value KO

[[record]]
molecule = "C[C@H](CCC(=O)O)[C@H]1CC[C@H]2[C@@H]3CC(=O)[C@@H]4C[C@H](O)CC[C@]4(C)[C@H]3CC[C@]12C [6-oxolithocholate]"
metric_name = "Mean value KO"
recorded_measurement = 0.970

[[record]]
molecule = "CCCCCCCCCCCCCCCCC(=O)OC(CC(=O)[O-])C[N+](C)(C)C (centres unmarked)"
metric_name = "Mean value KO"
recorded_measurement = 1.21

[[record]]
molecule = "CCCCCC/C=C\\CCCC(=O)OC(CC(=O)[O-])C[N+](C)(C)C (centres unmarked)"
metric_name = "Mean value KO"
recorded_measurement = 1.37

[[record]]
molecule = "CC(C)(O)CC(=O)O [beta-hydroxyisovalerate]"
metric_name = "Mean value KO"
recorded_measurement = 1.17

[[record]]
molecule = "Cc1c(C)c2c(c(C)c1O)CC[C@@](C)(CCC[C@H](C)CCC[C@H](C)CCCC(C)C)O2"
metric_name = "Mean value KO"
recorded_measurement = 1.44

[[record]]
molecule = "CCCCC/C=C\\C/C=C\\CCCCCCCC(N)=O [linoleamide (18:2n6)]"
metric_name = "Mean value KO"
recorded_measurement = 1.29

[[record]]
molecule = "CCCCCCCCCCCCCC/C=C\\OC[C@@H](O)COP(=O)(O)OCCN"
metric_name = "Mean value KO"
recorded_measurement = 1.30

[[record]]
molecule = "CCC(CO)C(=O)O (centres unmarked) [3-hydroxy-2-ethylpropionate]"
metric_name = "Mean value KO"
recorded_measurement = 1.10

